- System: PC-3 prostate
- procedure_text: NCI tumour cell line growth inhibition, 48 h
experimental_endpoint: TGI

Cn1ncc2c(Sc3ccc(Cl)cc3)ncnc21: > 100 µM
CCCCc1ccc(-n2c(C)c(COC(=O)NC)c(COC(=O)NC)c2C)cc1: 32 µM

Please examine the following record next.
[Q] Name the recorded TGI for COc1ccc(C2N(c3ccc(F)c([N+](=O)[O-])c3)C(=O)N3C(c4ccc(OC)cc4)N(c4ccc(F)c([N+](=O)[O-])c4)C(=O)N23)cc1 (configuration not stated) .
[A] > 100 µM

----------
- System: SK-MEL-5 melanoma
- procedure_text: NCI tumour cell line growth inhibition, 48 h
experimental_endpoint: TGI

COc1ccc2c(c1)CC[C@@H]1[C@@H]2CC[C@]2(C)C(=O)/C(=C/c3ccc(C#N)cc3)C[C@@H]12: > 100 µM
Cc1c2ccccc2cc2nc3ccccc3n12: > 10 µM
NC(=O)SCC(=O)Nc1ccc2cccc3c2c1CC3: 75.9 µM
CC(=O)c1sc2c(c1OC(=O)c1ccc(Cl)cc1Cl)c(=O)n(-c1ccccc1)c(=S)n2-c1ccccc1: 7.17 µM
COP(C)(=O)C1=CCN(C(=O)OCC[Si](C)(C)C)CC1 (stereo unspecified): > 100 µM

[Q] Bench note: what TGI did C=CN1CCN(c2ccccc2)P1(=O)Oc1ccccc1 (stereo unspecified) show?
[A] > 100 µM

[Q] For O=C(N/S(=N/S(=O)(=O)c1ccc(Br)cc1)C(Cl)(Cl)Cl)c1ccccc1 (stereo unspecified) , what is its reported TGI?
[A] > 100 µM

[Q] Report TGI for `Cc1ccc(C2(c3ccc(C)cc3)SC(=C(C#N)C#N)c3ccccc32)cc1` please.
[A] > 100 µM

[Q] Form field: reported TGI of `c1ccc(CNCCN2CCNCC2)nc1`
[A] > 100 µM

[Q] Data request, read-out TGI, for `O=C1C=CC(=O)c2c(O)c(NCCCN3CCOCC3)c(Cl)c(O)c21`
[A] 2.4 µM

[Q] Data request, read-out TGI, for `OC1CCN(c2c3ccccc3nc3ccccc23)CC1`
[A] 35.6 µM

----------
- System: A498 renal
- procedure_text: NCI tumour cell line growth inhibition, 48 h
experimental_endpoint: TGI (µM)
Answer in µM, number only, no unit symbol.

NC(N)=N/N=C(/CC1OC(=O)c2ccccc21)c1ccc2ccccc2c1 (configuration not stated): 33.4
OC1CCN(c2c3ccccc3nc3ccccc23)CC1: 35.6
Cc1cc2c([nH]1)CSc1cc(S(=O)(=O)c3ccccc3)c(=O)[nH]c1-2: 69.7

[Q] So what's the measured TGI for this one? `Cc1c(C(=O)OCc2ccccc2)[n+](=O)c2ccccc2n1[O-]`
[A] 94.3

[Q] Can you share its TGI? I mean this compound: `COc1ccc2nc(NNC(=O)c3cnccn3)c3cccn3c2c1`
[A] 9.5

[Q] What value of measured TGI is listed for `Cc1nc2cc([N+](=O)[O-])ccc2c(NCCCN(C)C)c1C` ?
[A] 30.5

[Q] Could you tell me which TGI is on file for `CC(=O)c1sc2c(c1OC(=O)c1ccc(Cl)cc1Cl)c(=O)n(-c1ccccc1)c(=S)n2-c1ccccc1` ?
[A] 1.4

[Q] I'd like to know its TGI. The compound in question is `CN(C)C=Nc1ccc2[nH]c3ccccc3c2c1`
[A] 60.1

[Q] What value of measured TGI is listed for `O=C1Nc2ccccc2/C1=C/C(=N/c1nnc(-c2ccccc2)s1)c1ccccc1` ?
[A] 21

[Q] Query (compound): `N#Cc1c(-c2ccccc2)cc(-c2ccccc2)n(CC(=O)NO)c1=O` ; field requested: TGI
[A] 7.99
